Biological target: T1, NativeRPtag(large)_with_Tags_and_Cys (Thermoanaerobacter tengcongensis)
T1 construct: Unlabeled in anisotropy assays; coupled through the engineered N-terminal Cys to SulfoLink agarose or maleimide plates in column, pull-down and ELISA assays
T1 chain: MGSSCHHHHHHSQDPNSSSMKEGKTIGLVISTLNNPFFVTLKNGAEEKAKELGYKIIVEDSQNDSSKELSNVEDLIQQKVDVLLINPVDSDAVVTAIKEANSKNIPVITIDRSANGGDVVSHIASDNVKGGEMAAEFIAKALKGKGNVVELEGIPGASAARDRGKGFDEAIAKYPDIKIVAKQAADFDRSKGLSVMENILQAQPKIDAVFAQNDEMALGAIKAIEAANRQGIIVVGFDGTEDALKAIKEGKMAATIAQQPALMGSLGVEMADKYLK
Assay: fluorescence anisotropy
pKd: −log10 of the molar value. No end group written: not given here. *: point of attachment. RhodamineB = CCN(CC)c1ccc2c(-c3ccccc3C(=O)*)c3ccc(=[N+](CC)CC)cc-3oc2c1
Quantity Name: pKd

- Binder: "RhodamineB-LITKENVQ [RPtag(small) Nd13]"
  Quantity Name: "pKd"
  Reported Measurement: 4.08
- Binder: "RhodamineB-GEKIPAFIPAELKLITKENVQ [RPtag(small) n6a]"
  Quantity Name: "pKd"
  Reported Measurement: 9.47
- Binder: "RhodamineB-KIPNFIPAELKLITKANAA [RPtag(small) Nd2, e18a, v20a, q21a]"
  Quantity Name: "pKd"
  Reported Measurement: 9.44
- Binder: "RhodamineB-KIPNFIPAELKLITK [RPtag(small) Nd2, Cd4]"
  Quantity Name: "pKd"
  Reported Measurement: 9.39
- Binder: "RhodamineB-GEKIPNFIPAELKLITKENV [RPtag(small) Cd1]"
  Quantity Name: "pKd"
  Reported Measurement: 9.26
- Binder: "RhodamineB-KIPNFIPAELKLITKE [RPtag(small) Nd2, Cd3]"
  Quantity Name: "pKd"
  Reported Measurement: 9.25
- Binder: "RhodamineB-GEKIPNFIPAELKLATKENVQ [RPtag(small) i15a]"
  Quantity Name: "pKd"
  Reported Measurement: 8.35
- Binder: "RhodamineB-KIANFIPAELKLITKE [RPtag(small) Nd2, Cd3, p5a]"
  Quantity Name: "pKd"
  Reported Measurement: 9.19
- Binder: "RhodamineB-AELKLITKENVQ [RPtag(small) Nd9]"
  Quantity Name: "pKd"
  Reported Measurement: 8.31
- Binder: "RhodamineB-GEKIANFIPAELKLITKENVQ [RPtag(small) p5a]"
  Quantity Name: "pKd"
  Reported Measurement: 9.64
- Binder: "RhodamineB-GEKIPNFIPAELKAITKENVQ [RPtag(small) l14a]"
  Quantity Name: "pKd"
  Reported Measurement: 8.05
- Binder: "RhodamineB-GEKIPNAIPAELKLITKENVQ [RPtag(small) f7a]"
  Quantity Name: "pKd"
  Reported Measurement: 8.70
- Binder: "RhodamineB-KIANFIPAELKLITKA [RPtag(small) Nd2, Cd3, p5a, e18a]"
  Quantity Name: "pKd"
  Reported Measurement: 9.25
- Binder: "RhodamineB-KLITKENVQ [RPtag(small) Nd12]"
  Quantity Name: "pKd"
  Reported Measurement: 6.28
